Readings of Ki for the listed compounds
target: Human α2δ-1 subunit of Cav2.2 calcium channel (Homo sapiens, UniProt P54289); experiment: Human α2δ-1 subunit of Cav2.2 calcium channel assay ([3H]-gabapentin binding); details: binding to the α2δ-1 subunit of voltage-gated calcium channels expressed as Ki; + also covers inhibition between 1% and 50%
Sequence (P54289 25-1103): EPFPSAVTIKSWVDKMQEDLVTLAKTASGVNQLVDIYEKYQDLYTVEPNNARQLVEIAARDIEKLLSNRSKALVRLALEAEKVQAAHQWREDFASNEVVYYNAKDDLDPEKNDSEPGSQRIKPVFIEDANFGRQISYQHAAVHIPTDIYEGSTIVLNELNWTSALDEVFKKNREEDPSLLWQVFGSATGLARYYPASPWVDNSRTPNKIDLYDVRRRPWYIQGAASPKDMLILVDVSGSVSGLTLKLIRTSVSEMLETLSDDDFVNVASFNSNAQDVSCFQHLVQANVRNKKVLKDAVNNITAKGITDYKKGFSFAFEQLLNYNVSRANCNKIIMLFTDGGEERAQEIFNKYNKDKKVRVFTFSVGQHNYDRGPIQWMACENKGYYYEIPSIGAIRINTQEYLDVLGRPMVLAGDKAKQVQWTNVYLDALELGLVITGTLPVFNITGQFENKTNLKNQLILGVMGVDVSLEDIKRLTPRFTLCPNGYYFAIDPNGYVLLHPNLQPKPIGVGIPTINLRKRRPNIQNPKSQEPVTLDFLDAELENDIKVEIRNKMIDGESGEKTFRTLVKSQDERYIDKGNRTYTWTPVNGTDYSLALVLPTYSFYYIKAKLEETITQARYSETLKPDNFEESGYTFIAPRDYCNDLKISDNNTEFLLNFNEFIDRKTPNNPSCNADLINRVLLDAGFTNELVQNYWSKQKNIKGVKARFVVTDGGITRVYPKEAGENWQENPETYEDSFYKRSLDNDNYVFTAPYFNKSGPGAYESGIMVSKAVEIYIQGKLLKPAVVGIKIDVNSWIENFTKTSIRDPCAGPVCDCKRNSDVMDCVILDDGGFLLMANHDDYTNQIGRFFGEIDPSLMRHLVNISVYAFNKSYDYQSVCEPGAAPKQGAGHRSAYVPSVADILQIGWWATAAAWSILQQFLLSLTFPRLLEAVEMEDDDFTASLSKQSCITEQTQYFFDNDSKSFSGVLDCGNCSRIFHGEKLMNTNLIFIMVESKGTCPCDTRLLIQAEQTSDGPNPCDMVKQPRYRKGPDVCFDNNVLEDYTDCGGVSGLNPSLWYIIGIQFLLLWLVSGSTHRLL

// solved cases for Ki follow
Oc1ncccc1-c1cc2nccc(C3CCCN(Cc4cccc(Cl)c4)C3)n2n1 (stereo not drawn) ... > 5 µM
Cc1nn2c([C@H]3CCCN([C@H](CO)c4ccccc4)C3)ccnc2c1-c1ccncc1 ... > 5 µM
CNCc1c(C)nn2c([C@H]3CCCN(Cc4ccc(Cl)cc4)C3)ccnc12 ... 0.5 to 5 µM
Cc1nn2c(C3CCCN(Cc4ccccc4)C3)ccnc2c1N (stereo not drawn) ... > 5 µM
CC(=O)N1CCC(CNCc2c(C)nn3c(C4CCCN(Cc5ccccc5)C4)ccnc23)CC1 (stereo not drawn) ... 0.5 to 5 µM
Cc1nn2c(C3CCCN(Cc4ccc(Cl)cc4)C3)ccnc2c1CN1CCCCC1 (stereo not drawn) ... 0.5 to 5 µM
Cc1nn2c([C@@H]3CCCN(Cc4ccccc4)C3)ccnc2c1CNCC1CCOCC1 ... > 5 µM
Cc1cc2nccc(C3CCCN(Cc4ccccc4)C3)n2n1 (stereo not drawn) ... 0.5 to 5 µM
Cc1nn2c(C3CCCN(Cc4ccc(Cl)cc4)C3)ccnc2c1-c1cncn1C (stereo not drawn) ... > 5 µM
Cc1nn2c(C3CCCN(Cc4ccccc4)C3)ccnc2c1-c1ccccc1F (stereo not drawn) ... > 5 µM

Q: What value of measured Ki is listed for Cc1nn2c(C3CCCN(Cc4ccc(Cl)cc4)C3)ccnc2c1CNCC1CCOC1 (racemic) ?
Ans: > 5 µM

Q: What value of measured Ki is listed for Cc1nn2c(C3CCCN(Cc4ccc(Cl)cc4)C3)ccnc2c1CCN(C)C (stereo not drawn) ?
Ans: 0.5 to 5 µM

---

Readings of Ki for the listed molecules
target: Human α2δ-1 subunit of Cav2.2 calcium channel (Homo sapiens, UniProt P54289); assay: Human α2δ-1 subunit of Cav2.2 calcium channel assay ([3H]-gabapentin binding); conditions: binding to the α2δ-1 subunit of voltage-gated calcium channels expressed as Ki; + also covers inhibition between 1% and 50%

// solved cases for Ki follow
Cc1nnc(CNCc2c(C)nn3c(C4CCCN(Cc5ccc(Cl)cc5)C4)ccnc23)o1 (stereo not drawn) [Example 152] ... > 5 µM
Cc1cc(C2CCCN(Cc3ccccc3)C2)n2nc(C)c(-c3ccncc3)c2n1 (stereo not drawn) [Example 59] ... 0.5 to 5 µM
Cc1ccc(CN2CCCC(c3ccnc4c(-c5ccncc5)c(C)nn34)C2)cc1 (stereo not drawn) [Example 76] ... 0.5 to 5 µM

Q: What value of measured Ki is listed for Cc1nn2c(C3CCCN(Cc4ccc(Cl)cc4)C3)ccnc2c1CNCC1(F)CCOCC1 (stereo not drawn) [Example 177] ?
Ans: 0.5 to 5 µM

Q: What value of measured Ki is listed for Cc1nn2c(C3CCCN(Cc4ccc(Cl)cc4)C3)ccnc2c1-c1ccncc1 (stereo not drawn) [Example 121] ?
Ans: 0.5 to 5 µM

Q: What value of measured Ki is listed for Cc1nn2c([C@@H]3CCCN(Cc4ccc(Cl)cc4)C3)ccnc2c1CNC[C@H]1CCOC1 [Example 202] ?
Ans: < 0.5 µM

Q: What value of measured Ki is listed for CNCc1cn(-c2cccc(-c3c(C)nn4c(C5CCCN(Cc6ccccc6)C5)ccnc34)c2)nn1 (stereo not drawn) [Example 61] ?
Ans: 0.5 to 5 µM

Q: What value of measured Ki is listed for Cc1nn2c(C3CCCN(Cc4ccc(Cl)cc4)C3)ccnc2c1CNCc1ccc(CO)cc1 (stereo not drawn) [Example 147] ?
Ans: > 5 µM

Q: What value of measured Ki is listed for COc1ncccc1-c1cc2nccc(C3CCCN(Cc4cccc(Cl)c4)C3)n2n1 (stereo not drawn) [Example 116] ?
Ans: > 5 µM

Q: What value of measured Ki is listed for CCOc1ccc(-c2cnn3c(C4CCCN(Cc5ccccc5)C4)ccnc23)cc1 (stereo not drawn) [Example 39] ?
Ans: > 5 µM

Q: What value of measured Ki is listed for Cc1nn2c(C3CCCN(Cc4ccccc4)C3)ccnc2c1CO (stereo not drawn) [Example 95] ?
Ans: > 5 µM

Q: What value of measured Ki is listed for c1ccc(CN2CCCC(c3ccnc4cc(-c5ccncc5)nn34)C2)cc1 (stereo not drawn) [Example 16] ?
Ans: 0.5 to 5 µM

---

Readings of Ki for the listed compounds
target: Human σ1 receptor (Homo sapiens, UniProt Q99720); construct: expressed in transfected cells; host or cells: HEK-293; test: Human σ1 receptor radioligand assay ([3H](+)-pentazocine binding, transfected HEK-293 membranes); details: binding to σ1 receptor expressed as Ki; + also covers inhibition between 1% and 50%; read-out: σ-1 binding
Sequence (Q99720 whole entry): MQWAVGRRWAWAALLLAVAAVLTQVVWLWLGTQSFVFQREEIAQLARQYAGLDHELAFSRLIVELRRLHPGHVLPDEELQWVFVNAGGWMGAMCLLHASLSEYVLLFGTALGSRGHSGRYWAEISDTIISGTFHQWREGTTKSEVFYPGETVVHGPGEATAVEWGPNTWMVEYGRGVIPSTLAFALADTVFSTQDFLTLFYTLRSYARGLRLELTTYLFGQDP

Fc1ccc(CN2CCCC(c3ccnc4cc(Br)nn34)C2)cc1F (stereo not drawn) ... > 1 µM
Cc1nn2c(C3CCCN(Cc4ccccc4)C3)ccnc2c1-c1ccnc(C(F)(F)F)c1 (stereo not drawn) ... > 1 µM

Note: attention shifts to another entry.
Q: What value of measured Ki is listed for CCCCN1CCCC(c2ccnc3cc(C)nn23)C1 (stereo not drawn) ?
Ans: < 0.5 µM

---

biological target: Human α2δ-1 subunit of Cav2.2 calcium channel (Homo sapiens, UniProt P54289); test: Human α2δ-1 subunit of Cav2.2 calcium channel assay ([3H]-gabapentin binding); conditions: binding to the α2δ-1 subunit of voltage-gated calcium channels expressed as Ki; + also covers inhibition between 1% and 50%
pKi: −log10 of the molar value.
experimentalEndpoint: pKi

COc1cc(-c2c(C)nn3c(C4CCCN(Cc5ccccc5)C4)ccnc23)ccn1 (stereo not drawn) ... 5.30 to 6.30
CC(=O)Nc1c(C)nn2c(C3CCCN(Cc4ccccc4)C3)ccnc12 (stereo not drawn) ... < 5.30
COc1ccc(-c2cc3nccc(C4CCCN(Cc5ccccc5)C4)n3n2)cn1 (stereo not drawn) ... 5.30 to 6.30
Cc1nn2c(C3CCCN(Cc4ccccc4)C3)ccnc2c1-c1ccncc1F (stereo not drawn) ... 5.30 to 6.30
Cc1nn2c(C3CCCN(Cc4ccc(Cl)cc4)C3)ccnc2c1-c1cncnc1 (stereo not drawn) ... 5.30 to 6.30
Cc1cnc2c(CNCC3CCOCC3)c(C)nn2c1C1CCCN(Cc2ccc(Cl)cc2)C1 (stereo not drawn) ... > 6.30
Cc1nn2c(C3CCCN(Cc4ccc(C(F)(F)F)cc4)C3)ccnc2c1-c1ccncc1 (stereo not drawn) ... < 5.30
Fc1ccccc1-c1cc2nccc(C3CCCN(Cc4ccccc4)C3)n2n1 (stereo not drawn) ... 5.30 to 6.30

Q: What value of measured pKi is listed for COc1cc(-c2cnn3c(C4CCCN(Cc5ccccc5)C4)ccnc23)ccn1 (stereo not drawn) ?
Ans: 5.30 to 6.30

---

Readings of Ki for the listed compounds
biological target: Human α2δ-1 subunit of Cav2.2 calcium channel (Homo sapiens); assay: Human α2δ-1 subunit of Cav2.2 calcium channel assay ([3H]-gabapentin binding); conditions: binding to the α2δ-1 subunit of voltage-gated calcium channels expressed as Ki; + also covers inhibition between 1% and 50%

// solved cases for Ki follow
Cc1nn2c(C3CCCN(Cc4ccc(F)c(F)c4)C3)ccnc2c1-c1ccncc1 (centres unmarked) ... 0.5 to 5 µM
Cc1nn2c([C@H]3CCCN(Cc4ccccc4)C3)ccnc2c1CNC[C@H]1CCN(C)C(=O)C1 ... 0.5 to 5 µM
Fc1ccc(CN2CCCC(c3ccnc4cc(Br)nn34)C2)cc1F (centres unmarked) ... 0.5 to 5 µM
Cc1nn2c(C3CCCN(Cc4ccc(Cl)cc4)C3)ccnc2c1CN1CCC(C(N)=O)CC1 (centres unmarked) ... 0.5 to 5 µM
CC(C)CCN1CCCC(c2ccnc3c(CNCC4CCOCC4)c(Cl)nn23)C1 (centres unmarked) ... > 5 µM

Q: Write down the reported Ki of Cc1nn2c([C@H]3CCCN(Cc4cccc(C#N)c4)C3)ccnc2c1CNCC1CCOCC1 , test system: Human α2δ-1 subunit of Cav2.2 calcium channel (Homo sapiens).
Ans: > 5 µM

Q: Write down the reported Ki of Cc1nc(-c2cccc(-c3c(C)nn4c(C5CCCN(Cc6ccccc6)C5)ccnc34)c2)no1 (centres unmarked) , test system: Human α2δ-1 subunit of Cav2.2 calcium channel (Homo sapiens).
Ans: 0.5 to 5 µM

---

Readings of pKi for the listed molecules
target: Human σ1 receptor (Homo sapiens, UniProt Q99720)
pKi: −log10 of the molar value.

COc1cc(-c2cnn3c(C4CCCN(Cc5ccccc5)C4)ccnc23)ccn1 (stereo not drawn) ... < 6.00

Q: Write down the reported pKi of Cc1nnc(-c2cccc(-c3c(C)nn4c(C5CCCN(Cc6ccccc6)C5)ccnc34)c2)o1 (stereo not drawn) , test system: Human σ1 receptor (Homo sapiens, UniProt Q99720).
Ans: < 6.00

Q: Write down the reported pKi of COc1ccccc1-c1cc2nccc(C3CCCN(Cc4ccccc4)C3)n2n1 (stereo not drawn) , test system: Human σ1 receptor (Homo sapiens, UniProt Q99720).
Ans: < 6.00

Q: Write down the reported pKi of Cc1cc2nccc(C3CCCN(Cc4ccccn4)C3)n2n1 (stereo not drawn) , test system: Human σ1 receptor (Homo sapiens, UniProt Q99720).
Ans: < 6.00

Q: Write down the reported pKi of COc1ncccc1-c1c(C)nn2c(C3CCCN(Cc4ccccc4)C3)ccnc12 (stereo not drawn) , test system: Human σ1 receptor (Homo sapiens, UniProt Q99720).
Ans: < 6.00

Q: Write down the reported pKi of Cc1nn2c([C@@H]3CCCN(Cc4ccc(Cl)cc4)C3)ccnc2c1CN[C@H](C)C1CCOCC1 (racemic) , test system: Human σ1 receptor (Homo sapiens, UniProt Q99720).
Ans: > 6.30

Q: Write down the reported pKi of Cc1nn2c(C3CCCN(Cc4ccc(C(F)(F)F)cc4)C3)ccnc2c1-c1ccncc1 (stereo not drawn) , test system: Human σ1 receptor (Homo sapiens, UniProt Q99720).
Ans: < 6.00

Q: Write down the reported pKi of COc1cnccc1-c1cc2nccc(C3CCCN(Cc4ccccc4)C3)n2n1 (stereo not drawn) , test system: Human σ1 receptor (Homo sapiens, UniProt Q99720).
Ans: < 6.00

Q: Write down the reported pKi of Cc1nn2c(C3CCCN(Cc4ccc(Cl)cc4)C3)ccnc2c1CNCC1CCN(S(C)(=O)=O)CC1 (stereo not drawn) , test system: Human σ1 receptor (Homo sapiens, UniProt Q99720).
Ans: 6.00 to 6.30

Q: Write down the reported pKi of Cc1nn2c(C3CCCN(Cc4ccccc4)C3)ccnc2c1-c1ccnc(F)c1 (stereo not drawn) , test system: Human σ1 receptor (Homo sapiens, UniProt Q99720).
Ans: < 6.00

Q: Write down the reported pKi of CN(c1cc2nccc(C3CCCN(Cc4ccccc4)C3)n2n1)C1CCNCC1 (stereo not drawn) , test system: Human σ1 receptor (Homo sapiens, UniProt Q99720).
Ans: < 6.00

Q: Write down the reported pKi of Cc1nn2c([C@H]3CCCN(Cc4cccc(C#N)c4)C3)ccnc2c1CNCC1CCOCC1 , test system: Human σ1 receptor (Homo sapiens, UniProt Q99720).
Ans: > 6.30

Q: Write down the reported pKi of Cc1nn2c(C3CCCN(Cc4ccccc4)C3)ccnc2c1CN1CCNCC1 (stereo not drawn) , test system: Human σ1 receptor (Homo sapiens, UniProt Q99720).
Ans: < 6.00

Q: Write down the reported pKi of Clc1cccc(CN2CCCC(c3ccnc4cc(Br)nn34)C2)c1 (stereo not drawn) , test system: Human σ1 receptor (Homo sapiens, UniProt Q99720).
Ans: < 6.00

Q: Write down the reported pKi of Cc1nn2c(C3CCCN(Cc4ccc(Cl)cc4)C3)ccnc2c1CN1CCC(C#N)CC1 (stereo not drawn) , test system: Human σ1 receptor (Homo sapiens, UniProt Q99720).
Ans: > 6.30

Q: Write down the reported pKi of Cc1nn2c([C@@H]3CCCN(Cc4ccc(F)cc4)C3)ccnc2c1CNCC1CCOCC1 , test system: Human σ1 receptor (Homo sapiens, UniProt Q99720).
Ans: > 6.30
